# System: UACC-62 melanoma
# assay-explanation: NCI-60 one-dose screen, 48 h (100 = growth as untreated, 0 = no growth, -100 = all killed)
# condition-notes: 10 µM unless noted
This is part of a sample that, as a whole, favours compounds with a hit. Of some 83,000 tested, about 20% had one in any assay. The source made the active and inactive calls. How the source made its calls: active means growth percent below 10; inactive means the rest.
value-kind: growth

Some entries whose results are on file:
C#CCNC(=O)CC[C@]1(C)[C@H]2CC[C@@H]3[C@@H]([C@@](C)(O)CCC=C(C)C)CC[C@@]3(C)[C@]2(C)CC[C@H]1C(=C)C :: 34% [100 µM] (inactive)
CC(C)=CC/C=C(/C)[C@H]1CC[C@]2(C)[C@@H]1CC[C@@H]1[C@@]3(C)CCCNC(C)(C)[C@@H]3CC[C@]12C :: -95.2% [100 µM] (active)
NS(=O)(=O)c1ccc(CCN2C(=O)/C(=C\c3ccccc3)C=C2c2ccc(Cl)cc2)cc1 :: 81.9% (inactive)

Quick one: give me growth for each item below, same order please.
1. O=C(NCCO)c1cccnc1
2. COc1cccc(-c2[nH]c(=S)ncc2C(=O)c2ccccc2)c1
3. Cc1cc[n+](CCCCCCCCCC[n+]2ccc(C)cc2)cc1
4. CC1(C)CC[C@]23CC[C@]4(C)[C@H](CC[C@@H]5[C@@]6(C)C/C(=C/c7ccncc7)C(=O)C(C)(C)[C@@H]6CC[C@]54C)[C@H]2[C@H]1OC3=O
5. C=CCCCCCCCCC(=O)OC(C)C
6. Cc1ccc(Oc2c(/C=N/NC(=O)Cn3c(=O)sc4ccccc43)c(C)nn2-c2ccccc2)cc1

Reply |
105% (inactive)
74.3% (inactive)
92.6% (inactive)
56.4% [100 µM] (inactive)
105% (inactive)
52.7% (inactive)
